tested on: green peach aphid (Myzus persicae); test: Myzus persicae spray test (Chinese cabbage leaf discs); assay type: in vivo; conditions: foliar, 144 h, read-out: efficacy in %
parameter: pest or weed control at 500 g/ha (%)
Please respond with the number in % and leave the unit unwritten.

- compound: "CC(F)(F)CNC(=O)c1ccc2nn(-c3cncnc3)cc2c1"
  test.target: "green peach aphid (Myzus persicae)"
  u: "%"
  pest or weed control at 500 g/ha: 100
- compound: "CSCCC(=O)N(C)c1ccc2nn(-c3cncc(F)c3)cc2c1"
  test.target: "green peach aphid (Myzus persicae)"
  u: "%"
  pest or weed control at 500 g/ha: 100
- compound: "CN(C(=O)CC[S+](C)[O-])c1ccc2nn(-c3cccnc3)cc2c1 (stereo not shown)"
  test.target: "green peach aphid (Myzus persicae)"
  u: "%"
  pest or weed control at 500 g/ha: 90

I would be grateful if you could share the reported pest or weed control at 500 g/ha for `CCn1cc(-c2ccc3nn(-c4cccnc4)cc3c2)cn1` .
90

What do you get for `CN(C)C(=O)c1ccc2nn(-c3cncc(F)c3)cc2c1` ?
90

Lookup `Clc1ccnc(-c2ccc3nn(-c4cccnc4)cc3c2)c1`
100

How about this compound: `c1cncc(-c2ccc3nn(-c4cccnc4)cc3c2)c1`
90

Where these numbers come from: patent US10131649B2
